Target: T1, recombinant cynomolgus monkey TREM-1 (cynomolgus monkey, UniProt A0A2K5VHG8 21-204)
T1 construct: Soluble recombinant protein injected as SPR analyte; construct not described; also called cTREM-1; cynomolgus TREM-1
T1 sequence: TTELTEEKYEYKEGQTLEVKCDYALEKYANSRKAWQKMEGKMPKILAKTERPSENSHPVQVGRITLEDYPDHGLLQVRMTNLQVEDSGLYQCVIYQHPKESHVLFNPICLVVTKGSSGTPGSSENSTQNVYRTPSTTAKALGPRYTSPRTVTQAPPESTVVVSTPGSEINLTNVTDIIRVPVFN
Experiment: SPR, Fab immobilised, cynomolgus TREM-1 injected; average
pKd: −log10 of the molar value.
We begin with a simple list: items and their reported pKd.
VALUE KIND: pKd

# BINDER, VALUE KIND, OBSERVED RESULT
records = [
    ("humanized anti-TREM-1 Fab fragment INO-10F-6 (Fab, V domains shown, Fab) VH: EVQLVESGGALVKPGGSLRLSCAASGFNIGNTYIHWVRQAPGKGLEWVGRIDPAGGRTKYAPKVKGRFTISADDSKNTLYLQMNSLKTEDTAVYYCTGHRGGTMDYWGQGTLVTVSS VL: EIVLTQSPATLSLSPGERATLSCRASQSVSNYGISFLNWYQQKPGQAPRLLIYAAEYRARGIPARFSGSGSGTDFTLTISSLEPEDFAVYYCQQSSNVPYTFGQGTKVEIK", "pKd", 7.25),
    ("humanized anti-TREM-1 Fab fragment INO-10F-2 (Fab, V domains shown, Fab) VH: EVQLVESGGALVKPGGSLRLSCAASGFNIGNTYIHWVRQAPGKGLEWIGRIDPAGGRTKYSPKVQGRFTISAPTSKNTAYLQMNSLKTEDTAVYYCTGHRGGTMDYWGQGTLVTVSS VL: EIVLTQSPATLSLSPGERATLSCRASQSVSNYGISFLNWYQQKPGQAPRLLIYAASYQKRGIPARFSGSGSGTDFTLTISSLEPEDFAVYYCQQSSNFPWTFGQGTKVEIK", "pKd", 7.55),
    ("humanized anti-TREM-1 Fab fragment INO-10F-3 (Fab, V domains shown, Fab) VH: EVQLVESGGALVKPGGSLRLSCAASGFNIDNTYIHWVRQAPGKGLEWIGRIDPAGGRTKYDPKVKGRFTISADTSKNTAYLQMNSLKTEDTAVYYCTGHYGGTMDYWGQGTLVTVSS VL: EIVLTQSPATLSLSPGERATLSCRASESVDNYGISFLNWYQQKPGQAPRLLIYAAEYRGRGIPARFSGSGSGTDFTLTISSLEPEDFAVYYCQQSRHVPYTFGQGTKVEIK", "pKd", 8.12),
    ("humanized anti-TREM-1 Fab fragment INO-10F-4 (Fab, V domains shown, Fab) VH: EVQLVESGGALVKPGGSLRLSCAASGFNIGNTYIHWVRQAPGKGLEWVGRIDPAGGRTKYAPKVKGRFTISADDSKNTAYLQMNSLKTEDTAVYYCTGHRGGTMDYWGQGTLVTVSS VL: EIVLTQSPATLSLSPGERATLSCRASQSVSNYGISFLNWYQQKPGQAPRLLIYAAEYRGRGIPARFSGSGSGTDFTLTISSLEPEDFAVYYCQQSSNVPYTFGQGTKVEIK", "pKd", 7.61),
]

Origin of measurements: patent US20240254225A1
